For each record, write down the corresponding λmax, nm.
target: NANOLUC® Luciferase (Oplophorus gracilirostris, UniProt Q9GV45, A31E/A60N/A81I/F95D/I117V/K70R/L54V/L99Q/M102K/N193R/P142E/Q151K/Q38R/Q45L/V71I/Y165I); experiment: Luminescence assay with purified NANOLUC luciferase (Example 7); type: biochemical; details: bioluminescence with NANOLUC luciferase
Sequence (Q9GV45 28-196 with tags or gaps with the stated changes limits assumed): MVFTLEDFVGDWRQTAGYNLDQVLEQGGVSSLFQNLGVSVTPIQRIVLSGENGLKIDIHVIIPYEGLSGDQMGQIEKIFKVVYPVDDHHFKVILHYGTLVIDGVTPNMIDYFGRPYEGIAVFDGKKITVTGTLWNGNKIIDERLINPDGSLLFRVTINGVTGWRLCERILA
Number in nm, nothing else.

The recorded λmax, nm for N#Cc1ccc(-c2[nH]c(-c3ccccc3)cn3c(=O)c(Cc4ccco4)nc2-3)s1 [AS-262] is 574

The recorded λmax, nm for O=c1c(Cc2ccco2)nc2c(-c3sccc3Cl)[nH]c(-c3ccccc3)cn1-2 [AS-282] is 505

The recorded λmax, nm for O=c1c(Cc2ccco2)nc2c(-c3cccs3)[nH]c(-c3cccs3)cn1-2 [AS-176] is 496

The recorded λmax, nm for N#Cc1ccc(-c2[nH]c(-c3ccc(N)cc3)cn3c(=O)c(Cc4ccco4)nc2-3)s1 [AS-332] is 598

The recorded λmax, nm for O=c1c(Cc2ccco2)nc2c(-c3ccc4scnc4c3)[nH]c(-c3ccccc3)cn1-2 [AS-250] is 511

The recorded λmax, nm for O=c1c(Cc2ccco2)nc2c(-c3ccnc4ccccc34)[nH]c3c(n1-2)CCc1ccccc1-3 [AS-341] is 583

The recorded λmax, nm for O=c1c(Cc2ccco2)nc2c(-c3ccnc(F)c3)[nH]c(-c3cccs3)cn1-2 [AS-306] is 544
